Source of measurements: ChEMBL document CHEMBL2439947

# Tested on: Candida albicans
# assay_explanation: Antifungal activity against Candida albicans ATCC 10231 assessed as ethanol level after 24 hrs by [1H] NMR spectroscopic analysis
# Assay type: functional

- molecule: "COc1ccc(C(=O)O[C@@](Cn2cncn2)(c2ccc(F)cc2F)[C@@H](C)c2ncncc2F)cc1 [VORICONAZOLE P-METHOXY BENZOATE]"
  target_of_assay: "Candida albicans"
  Activity [µg/mL]: 3
- molecule: "C[C@@H](c1ncncc1F)[C@](O)(Cn1cncn1)c1ccc(F)cc1F"
  target_of_assay: "Candida albicans"
  Activity [µg/mL]: 1
- molecule: "C[C@@H](c1ncncc1F)[C@@](Cn1cncn1)(OC(=O)c1ccccc1)c1ccc(F)cc1F [VORICONAZOLE BENZOATE]"
  target_of_assay: "Candida albicans"
  Activity [µg/mL]: 4
- molecule: "Cc1ccc(C(=O)O[C@@](Cn2cncn2)(c2ccc(F)cc2F)[C@@H](C)c2ncncc2F)cc1 [VORICONAZOLE TOLUATE]"
  target_of_assay: "Candida albicans"
  Activity [µg/mL]: 5
- molecule: "C[C@@H](c1ncncc1F)[C@@](Cn1cncn1)(OC(=O)c1ccc([N+](=O)[O-])cc1)c1ccc(F)cc1F [VORICONAZOLE P-NITRO BENZOATE]"
  target_of_assay: "Candida albicans"
  Activity [µg/mL]: 7
